Assay type: cell-based, human
Condition: CC50
Bridge positions count the residues as written; N and C are the ends. Square brackets hold non-standard residues; d marks the D form. Peptide text beside a SMILES is read from it.
Measured Metric: CC50

• CC[C@H](C)[C@H](NC(=O)[C@H](CCCNC(=N)N)NC(=O)[C@H]1CCC(=O)NCCCC[C@H](NC(=O)[C@H](Cc2ccccc2)NC(=O)[C@H](Cc2c[nH]c3ccccc23)NC(=O)[C@@H]2CCCN2C(=O)[C@@H](NC(=O)[C@@H](N)Cc2ccccc2)C(C)C)C(=O)N[C@@H](CCCCN)C(=O)N[C@@H](Cc2ccccc2)C(=O)N[C@H](CC(C)C)C(=O)N1)C(=O)N[C@@H](CC(C)C)C(N)=O [Peptide 2, FVPWF[KKFle]RIL] (H-FVPWFKKF[dL][dE]RIL-NH2; lactam 6-10) = > 50 µM

* * *

Parameter: MIC. Scope: all listed entries.
Tested on: E. faecalis ATCC 29212
Method Notes: microbe, parasite or virus in culture
Format: cell-based
Condition: ATCC 29212
Bridge positions count the residues as written; N and C are the ends. Square brackets hold non-standard residues; d marks the D form. Peptide text beside a SMILES is read from it. * marks the point of attachment. X1 = N=C(N)N[C@@H](Cc1ccccc1)C(=O)*
Measured Metric: MIC (µM)

- CC[C@H](C)[C@H](NC(=O)[C@H](CCCNC(=N)N)NC(=O)[C@H]1CCC(=O)NCCCC[C@H](NC(=O)[C@H](Cc2ccccc2)NC(=O)[C@H](Cc2c[nH]c3ccccc23)NC(=O)[C@@H]2CCCN2C(=O)[C@@H](NC(=O)[C@H](Cc2ccccc2)NC(=N)N)C(C)C)C(=O)N[C@@H](CCCCN)C(=O)N[C@@H](Cc2ccccc2)C(=O)N[C@H](CC(C)C)C(=O)N1)C(=O)N[C@@H](CC(C)C)C(N)=O [Peptide 3, guanidino-FVPWF[KKFle]RIL] (X1-VPWFKKF[dL][dE]RIL-NH2; lactam 5-9): 25
- CC[C@H](C)[C@H](NC(=O)[C@H](CCCNC(=N)N)NC(=O)[C@@H]1CCC(=O)NCCCC[C@H](NC(=O)[C@H](Cc2ccccc2)NC(=O)[C@H](Cc2c[nH]c3ccccc23)NC(=O)[C@@H]2CCCN2C(=O)[C@@H](NC(=O)[C@@H](N)Cc2ccccc2)C(C)C)C(=O)N[C@@H](CCCCN)C(=O)N[C@@H](Cc2ccccc2)C(=O)N[C@H](CC(C)C)C(=O)N1)C(=O)N[C@@H](CC(C)C)C(N)=O [Peptide 1, FVPWF[KKFlE]RIL] (H-FVPWFKKF[dL]ERIL-NH2; lactam 6-10): 6.25
